- Test system: murine splenocytes
- EXPERIMENT DESCRIPTION: ConA mitogen-stimulated proliferation of murine splenocytes ([3H]-thymidine incorporation)
- Format: cell-based, mouse (BALB/c)
- CONDITIONS USED: ConA 1 μg/ml, 100,000 spleen cells, Experiment I; read-out: IC50 in inhibition of ConA induced murine splenocyte proliferation
ENDPOINT NAME: IC50 (µM)
API: value field is a number in µM; no unit string.

The examples below pair each entry with its known result.
COMPOUND: CC(C)CCCCCCC(=O)CC(=O)N[C@H]1CCOC1=O [Example 3]
IC50, µM: 8
//
COMPOUND: O=C(CCCCCCCCCBr)CC(=O)N[C@H]1CCOC1=O [Example 7]
IC50, µM: 6
//
COMPOUND: CCCCCCCCCC(O)CC(=O)N[C@H]1CCOC1=O (stereo partly shown) [Example 21]
IC50, µM: 12

Here is the next item to consider.
Exercise: Give murine splenocytes IC50 for CCCCCCCCC(=O)CC(=O)N[C@H]1CCOC1=O [Example 1, N-(3-oxoundecanoyl)-L-homoserine lactone]
Solution: 9

// data source = patent US7371779B2
